SYSTEM_UNDER_TEST: T1, FLAG-tagged mouse Ang2 (mouse, UniProt O35608 19-496)
T1 construct: N-terminally FLAG-tagged, conditioned medium of HEK293T cells; also called mAng2; FLAG-mAng2
T1 sequence: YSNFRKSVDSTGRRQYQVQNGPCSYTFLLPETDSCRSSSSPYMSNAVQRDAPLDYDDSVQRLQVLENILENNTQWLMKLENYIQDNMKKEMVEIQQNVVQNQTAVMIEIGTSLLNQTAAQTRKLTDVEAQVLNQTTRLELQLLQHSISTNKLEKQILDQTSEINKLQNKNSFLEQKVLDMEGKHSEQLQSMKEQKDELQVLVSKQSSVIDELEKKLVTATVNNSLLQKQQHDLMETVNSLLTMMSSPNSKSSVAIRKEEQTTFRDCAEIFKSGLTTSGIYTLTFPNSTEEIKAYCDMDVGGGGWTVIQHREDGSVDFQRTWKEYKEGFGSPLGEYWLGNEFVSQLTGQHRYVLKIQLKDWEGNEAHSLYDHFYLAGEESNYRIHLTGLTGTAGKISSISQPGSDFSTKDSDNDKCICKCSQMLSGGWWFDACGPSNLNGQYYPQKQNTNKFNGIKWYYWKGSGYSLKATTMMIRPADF
TEST_DESCRIPTION: competition ELISA: FLAG-mAng2 binding to coated mTie2-Fc
ENDPOINT: IC50 (nM)
Write the value in nM as a bare number.

{"BINDER": "VHH 00931 (VHH, not shown: small tags and cut ends) VHH: EVQLVESGGGLVQPGGSLRLSCAASGFALDYYAIGWFRQAPGKEREGVSCISSSGGITYYADSVKGRFTISRDNSKNTVYLQMNSLRPEDTAVYYCATESGGYIDYDCSGLGYDYWGQGTLVTVSS", "IC50, nM": 0.15}

Task: Can you share its IC50? I mean this binder: VHH 00929 (VHH, not shown: small tags and cut ends) VHH: EVQLVESGGGLVQPGGSLRLSCAASGFALDYYAIGWFRQAPGKEREGVSCISSSGGITYYADSVKGRFTISRDNSKNTVYLQMNSLRPEDTAVYYCATESGGYIDYDCQGLGYDYWGQGTLVTVSS
Result: 0.15

Task: Follow-up item: VHH 37F02 (VHH, not shown: small tags and cut ends, Parental llama VHH; also called 037F02) VHH: EVQLVESGGGLVQPGGSLRLSCAASGFALDYYAIGWFRQAPGKEREGVSCISSSDGITYYVDSVKGRFTISRDNAKNTVYLQMNSLKPEDTAVYYCATDSGGYIDYDCMGLGYDYWGQGTQVTVSS
Result: 0.11

Task: And what about the binder VHH 00928 (VHH, not shown: small tags and cut ends) VHH: EVQLVESGGGLVQPGGSLRLSCAASGFALDYYAIGWFRQAPGKEREGVSCISSSGGITYYADSVKGRFTISRDNSKNTVYLQMNSLRPEDTAVYYCATDSGGYIDYDCSGLGYDYWGQGTLVTVSS ?
Result: 0.2
